# Assayed system: T1, human EphA4 (Homo sapiens, UniProt P54764)
# T1 construct: made in house; not restated for the human SEAP-His protein
# T1 sequence (P54764 20-547): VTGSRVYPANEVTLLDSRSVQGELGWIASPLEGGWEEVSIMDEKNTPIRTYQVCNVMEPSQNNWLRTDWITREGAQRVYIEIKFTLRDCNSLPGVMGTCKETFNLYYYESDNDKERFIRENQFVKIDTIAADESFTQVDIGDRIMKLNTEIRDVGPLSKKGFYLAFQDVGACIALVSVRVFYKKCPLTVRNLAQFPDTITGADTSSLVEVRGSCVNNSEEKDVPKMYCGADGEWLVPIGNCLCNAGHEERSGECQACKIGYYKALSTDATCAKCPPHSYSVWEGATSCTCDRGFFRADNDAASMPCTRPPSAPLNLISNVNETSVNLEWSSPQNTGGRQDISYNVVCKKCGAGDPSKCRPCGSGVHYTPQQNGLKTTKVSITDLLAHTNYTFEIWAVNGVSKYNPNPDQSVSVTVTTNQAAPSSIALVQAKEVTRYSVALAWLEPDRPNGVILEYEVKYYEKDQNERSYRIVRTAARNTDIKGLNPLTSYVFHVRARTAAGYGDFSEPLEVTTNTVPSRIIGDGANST
# Assay name: Affinity of humanized antibodies by SPR (Biacore T200)
# Format: binding
# Measurement parameters: human EphA4 extracellular region-SEAP-His; KD=kd/ka
In this section, each of the molecules is paired with its reported Kd.
Express it in nM; write the number only.

molecule="78 (antibody, V domains shown, synthetic humanized antibody heavy chain variable region sequence; synthetic humanized antibody light chain variable region sequence) VH: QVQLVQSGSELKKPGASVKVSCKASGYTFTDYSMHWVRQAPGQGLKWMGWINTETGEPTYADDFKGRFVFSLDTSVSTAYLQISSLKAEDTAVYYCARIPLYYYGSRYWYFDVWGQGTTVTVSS VL: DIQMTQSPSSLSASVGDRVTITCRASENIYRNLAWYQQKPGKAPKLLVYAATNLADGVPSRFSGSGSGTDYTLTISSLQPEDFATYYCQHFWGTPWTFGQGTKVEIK" assay_metric=Kd unit_info=nM reading=1.1

Please give the measured Kd for this molecule: 152 (antibody, V domains shown, synthetic humanized antibody heavy chain variable region sequence; synthetic humanized antibody light chain variable region sequence) VH: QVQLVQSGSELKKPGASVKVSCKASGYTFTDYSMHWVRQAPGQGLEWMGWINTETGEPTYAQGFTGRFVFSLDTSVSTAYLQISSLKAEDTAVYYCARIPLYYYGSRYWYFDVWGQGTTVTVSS VL: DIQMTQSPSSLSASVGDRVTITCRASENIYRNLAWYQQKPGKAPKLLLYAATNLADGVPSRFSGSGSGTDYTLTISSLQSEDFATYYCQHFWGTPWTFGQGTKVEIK
2

Just for reference, patent US10428140B2 is where these values come from.
